target desc: human kinase Mps-1 (Homo sapiens)
Construct: N-terminally GST-tagged human full length recombinant Mps-1 kinase; GST (N)
assay info: Mps-1 kinase assay (TR-FRET)
applied conditions: N-terminally GST-tagged human full length recombinant Mps-1; 10 μM ATP; 1 μM peptide substrate; 15 min pre-incubation; 60 min at 22° C.
Description: The human kinase Mps-1 phosphorylates a biotinylated substrate peptide. Detection of the phosphorylated product is achieved by time-resolved fluorescence resonance energy transfer (TR-FRET) from Europium-labelled anti-phospho-Serine/Threonine antibody as donor to streptavidin labelled with cross-linked allophycocyanin (SA-XLent) as acceptor. Compounds are tested for their inhibition of the kinase activity. […]
pIC50: −log10 of the molar value.
Please mark Satisfied if the recorded pIC50 is equal to or greater than 8, and Not satisfied if it falls below.

compound | group label
CC(C)(O)CNc1nc(-c2ccc(F)cc2)cn2c(-c3ccc(C(=O)NC4CC4)c(F)c3)cnc12 | Satisfied

Tell me whether pIC50 is at least 8 here: CC(C)CNc1nc(-c2ccc(C3CC3)cc2)cn2c(-c3ccc(C(=O)NC4CC4)cc3)cnc12
Not satisfied

Next up: CC(C)CNc1nc(-c2ccc(C(=O)N3CCCC3)cc2)cn2c(-c3ccc(C(=O)NC4CC4)cc3)cnc12
Satisfied

Cc1cc(-c2cn3c(-c4ccc(C(=O)NC5CC5)cc4)cnc3c(NCC(C)C)n2)cc(C)c1O ?
Satisfied

Proceed to CC(C)CNc1nc(-c2cccc3cnccc23)cn2c(-c3ccc(C(=O)NC4CC4)cc3)cnc12
Satisfied

What about this compound? CCCc1cn2c(-c3ccc(C(=O)NC4CC4)cc3)cnc2c(NCC(C)C)n1
Satisfied

Also CNC(=O)c1ccc(-c2cn3c(-c4ccc(C(=O)NC5CC5)cc4)cnc3c(NCC(C)C)n2)cc1 ?
Satisfied

---

target desc: human kinase Mps-1 (Homo sapiens)
Construct: N-terminally GST-tagged human full length recombinant Mps-1 kinase; GST (N)
assay info: Mps-1 kinase assay (TR-FRET)
applied conditions: N-terminally GST-tagged human full length recombinant Mps-1; 10 μM ATP; 1 μM peptide substrate; 15 min pre-incubation; 60 min at 22° C.
pIC50: −log10 of the molar value.
Label rule, in plain words: pIC50 of 8 and up is satisfied, under 8 is not satisfied.

Answered examples (8):
molecule | group label
NCCNc1nc(-c2ccccc2)cn2c(-c3ccc(C(=O)NC4CC4)cc3)cnc12 [Example 2-69] | not satisfied
O=C(NC1CC1)c1ccc(-c2cnc3c(NCCc4cccs4)nc(-c4ccccc4)cn23)cc1 [Example 2-39] | not satisfied
O=C(NC1CC1)c1ccc(-c2cnc3c(NCCSC(F)(F)F)nc(-c4ccccc4)cn23)cc1 [Example 2-83] | satisfied
O=C(NC1CC1)c1ccc(-c2cnc3c(NCC4CCCO4)nc(-c4ccccc4)cn23)cc1 (stereo not drawn) [Example 2-8] | satisfied
O=C(NC1CC1)c1ccc(-c2cnc3c(NCCCOC[C@@H](O)CO)nc(-c4ccccc4)cn23)cc1 [Example 9-1] | satisfied
CN(C)c1ccc(-c2cn3c(-c4ccc(C(=O)NC5CC5)c(Cl)c4)cnc3c(NCC3CCCO3)n2)cc1 (stereo not drawn) [Example 1-105] | not satisfied
O=C(NC1CC1)c1ccc(-c2cnc3c(NCCc4nccs4)nc(-c4ccccc4)cn23)cc1 [Example 2-63] | satisfied
CC(C)CNc1nc(-c2ccc3c(c2)OCCO3)cn2c(-c3ccc(C(=O)NC4CC4)cc3)cnc12 [Example 1-3] | not satisfied

Hello, I need to know if O=C(NC1CC1)c1ccc(-c2cnc3c(NCC4CCCC4)nc(-c4ccccc4)cn23)cc1 [Example 2-72] has measured pIC50 not below 8. Thanks!
satisfied

How about CC(=O)c1cccc(-c2cn3c(-c4ccc(C(=O)NC5CC5)cc4)cnc3c(NCC(C)C)n2)c1 [Example 1-46] ?
satisfied

Further, for CC(C)CNc1nc(-c2ccc(N3CCNCC3)cc2)cn2c(-c3ccc(C(=O)NC4CC4)cc3)cnc12 [Example 1-89] ?
satisfied

And then CC(C)CNc1nc(-c2ccc(N(C)C)cc2)cn2c(-c3ccc(C(=O)NC4CC4)c(Cl)c3)cnc12 [Example 1-94] , what is it?
not satisfied

---

Record form. Attribute: IC50. Fill in for each entry.
target desc: human kinase Mps-1 (Homo sapiens)
Construct: N-terminally GST-tagged human full length recombinant Mps-1 kinase; GST (N)
assay info: Mps-1 kinase assay (TR-FRET)
applied conditions: N-terminally GST-tagged human full length recombinant Mps-1; 10 μM ATP; 1 μM peptide substrate; 15 min pre-incubation; 60 min at 22° C.
Experimental: The human kinase Mps-1 phosphorylates a biotinylated substrate peptide. Detection of the phosphorylated product is achieved by time-resolved fluorescence resonance energy transfer (TR-FRET) from Europium-labelled anti-phospho-Serine/Threonine antibody as donor to streptavidin labelled with cross-linked allophycocyanin (SA-XLent) as acceptor. Compounds are tested for their inhibition of the kinase activity. […]
One number for each entry, in nM.

Examples with answers:
compound | unit annotation | IC50
O=C(NC1CC1)c1ccc(-c2cnc3c(NCc4ccsc4)nc(-c4ccccc4)cn23)cc1 | nM | 3.7
Cc1cc(-c2cnc3c(NCC4CC(=O)N(C)C4)nc(-c4ccc(F)cc4)cn23)ccc1C(=O)NC1CC1 (stereo not drawn) | nM | 7.2
NC(=O)CCNc1nc(-c2ccccc2)cn2c(-c3ccc(C(=O)NC4CC4)cc3)cnc12 | nM | 5
CC(C)CNc1nc(-c2ccc(C(=O)Nc3ccccc3)cc2)cn2c(-c3ccc(C(=O)NC4CC4)cc3)cnc12 | nM | 2.1
CN(C)c1ccc(-c2cn3c(-c4ccc(C(=O)NC5CC5)c(F)c4)cnc3c(NCC3CCCO3)n2)cc1 (stereo not drawn) | nM | 28.8

// each listed compound needs a value for IC50
1. Cc1cc(-c2cnc3c(NCC4CCC(C)(O)CC4)nc(-c4ccc(F)cc4)cn23)ccc1C(=O)NC1CC1 (stereo not drawn)
2. Cn1nccc1CNc1nc(-c2ccc(F)cc2)cn2c(-c3ccc(C(=O)NC4CC4)c(Cl)c3)cnc12
3. CC(C)CNc1nc(-c2ccc(F)cc2)cn2c(-c3ccc(C(=O)NC4CC4)c(F)c3)cnc12

5.4
13.2
5.3

---

target desc: human kinase Mps-1 (Homo sapiens, UniProt P33981)
Construct: N-terminally GST-tagged human full length recombinant Mps-1 kinase; GST (N)
assay info: Mps-1 kinase assay (TR-FRET)
applied conditions: N-terminally GST-tagged human full length recombinant Mps-1; 10 μM ATP; 1 μM peptide substrate; 15 min pre-incubation; 60 min at 22° C.
Experimental: The human kinase Mps-1 phosphorylates a biotinylated substrate peptide. Detection of the phosphorylated product is achieved by time-resolved fluorescence resonance energy transfer (TR-FRET) from Europium-labelled anti-phospho-Serine/Threonine antibody as donor to streptavidin labelled with cross-linked allophycocyanin (SA-XLent) as acceptor. Compounds are tested for their inhibition of the kinase activity. […]
measurement name: IC50 (nM)
Numbers only, in nM.

compound | unit annotation | IC50
CC(C)CNc1nc(-c2ccc3cc[nH]c3c2)cn2c(-c3ccc(C(=O)NC4CC4)cc3)cnc12 [Example 1-23] | nM | 21

Please state IC50 for every compound in the list that follows.
1. COc1ccc(Cl)cc1-c1cn2c(-c3ccc(C(=O)NC4CC4)cc3)cnc2c(NCC(C)C)n1 [Example 1-71]
2. CN(C)c1ccc(-c2cn3c(-c4ccc(C(=O)NC5CC5)c(F)c4)cnc3c(NCCC(F)(F)F)n2)cc1 [Example 1-113]
3. CSc1ccc(-c2cn3c(-c4ccc(C(=O)NC5CC5)cc4)cnc3c(NCC(C)C)n2)cc1 [Example 1-18]

1: 35.9; 2: 11.2; 3: 8.5

---

Please go through the items and note down their IC50.
target desc: human kinase Mps-1 (Homo sapiens)
Construct: N-terminally GST-tagged human full length recombinant Mps-1 kinase; GST (N)
assay info: Mps-1 kinase assay (TR-FRET)
applied conditions: N-terminally GST-tagged human full length recombinant Mps-1; 10 μM ATP; 1 μM peptide substrate; 15 min pre-incubation; 60 min at 22° C.
// unit must come after the numeric part

compound | IC50
O=C(NC1CC1)c1ccc(-c2cnc3c(NCCC(F)(F)F)nc(-c4ccccc4)cn23)cc1 [Example 2-43] | 1.1 nM

Value sought for every listed compound: IC50.
1. COc1cccc(-c2cn3c(-c4ccc(C(=O)NC5CC5)cc4)cnc3c(NCC(C)C)n2)c1 [Example 1-38]
2. CC(C)CNc1nc(-c2ccccc2)c(F)n2c(-c3ccc(C(=O)NC4CC4)cc3)cnc12 [Example 5-1]

4.8 nM
67 nM

Form field: reported IC50 of CC(C)CNc1nc(-c2ccccc2O)cn2c(-c3ccc(C(=O)NC4CC4)cc3)cnc12 [Example 1-65]
8.5 nM

---

target desc: human kinase Mps-1 (Homo sapiens, UniProt P33981)
Construct: N-terminally GST-tagged human full length recombinant Mps-1 kinase; GST (N)
Sequence (P33981 1-857): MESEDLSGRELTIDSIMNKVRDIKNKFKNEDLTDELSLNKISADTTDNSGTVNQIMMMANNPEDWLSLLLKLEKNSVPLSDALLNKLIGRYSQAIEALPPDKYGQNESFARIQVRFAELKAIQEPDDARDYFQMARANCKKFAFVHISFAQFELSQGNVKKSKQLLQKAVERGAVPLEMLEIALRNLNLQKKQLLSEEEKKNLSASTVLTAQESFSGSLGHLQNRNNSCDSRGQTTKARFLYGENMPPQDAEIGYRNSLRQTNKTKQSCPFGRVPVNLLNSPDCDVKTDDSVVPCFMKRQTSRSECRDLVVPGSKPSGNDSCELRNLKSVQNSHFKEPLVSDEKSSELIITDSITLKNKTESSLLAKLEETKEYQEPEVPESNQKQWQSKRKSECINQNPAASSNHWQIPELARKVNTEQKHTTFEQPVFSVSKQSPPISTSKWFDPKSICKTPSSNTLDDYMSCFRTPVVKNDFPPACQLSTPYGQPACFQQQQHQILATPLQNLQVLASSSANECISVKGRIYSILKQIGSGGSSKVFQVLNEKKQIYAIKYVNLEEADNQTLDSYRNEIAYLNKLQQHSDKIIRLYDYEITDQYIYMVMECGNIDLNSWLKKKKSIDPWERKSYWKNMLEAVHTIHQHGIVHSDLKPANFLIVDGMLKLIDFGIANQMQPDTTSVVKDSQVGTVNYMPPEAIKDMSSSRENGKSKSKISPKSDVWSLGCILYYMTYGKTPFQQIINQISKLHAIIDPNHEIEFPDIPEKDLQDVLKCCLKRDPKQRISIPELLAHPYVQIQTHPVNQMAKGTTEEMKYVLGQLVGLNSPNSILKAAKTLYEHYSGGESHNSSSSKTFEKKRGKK
assay info: Mps-1 kinase assay (TR-FRET)
applied conditions: N-terminally GST-tagged human full length recombinant Mps-1; 10 μM ATP; 1 μM peptide substrate; 15 min pre-incubation; 60 min at 22° C.
measurement name: IC50 (nM)
Answers are plain numbers, in nM.

smiles code | IC50, nM
NCCCCCNc1nc(-c2ccccc2)cn2c(-c3ccc(C(=O)NC4CC4)cc3)cnc12 | 3.2
CCN(CC)CCCCNc1nc(-c2ccccc2)cn2c(-c3ccc(C(=O)NC4CC4)cc3)cnc12 | 14.1
O=C(NC1CC1)c1ccc(-c2cnc3c(NCc4ccoc4)nc(-c4ccccc4)cn23)cc1 | 2.8
CC(C)CNc1nc(-c2ccc(CCO)cc2)cn2c(-c3ccc(C(=O)NC4CC4)cc3)cnc12 | 1
O=C(NC1CC1)c1ccc(-c2cnc3c(NCc4cccc(Cl)c4)nc(-c4ccccc4)cn23)cc1 | 13.8

I have 2 molecules here; please give me IC50 for each one.
1. O=C(NC1CC1)c1ccc(-c2cnc3c(NCCCCO)nc(-c4ccccc4)cn23)cc1
2. CC(C)CNc1nc(-c2cccc(S(=O)(=O)N3CCOCC3)c2)cn2c(-c3ccc(C(=O)NC4CC4)cc3)cnc12

[1.1, 6.7]
